experiment: NCI Yeast Anticancer Drug Screen. Data for the mlh1 rad18 strain (AID 175); conditions: S. cerevisiae mlh1 rad18 strain growth inhibition; at 50.0 µM
About 79,000 compounds went through this panel and 15% of them were active in at least one assay; those are over-represented in the sample as a whole. Active and inactive are the calls of the source. Rule as the data show it: active = growth inhibition above about 70%; inactive = the rest.
# output must be one of true (1) (active), false (0) (inactive)

INPUT: Name the outcome recorded for C[n+]1[se]nc2cc(C(=O)c3ccccc3)ccc21 (tested in a mixture with another compound) in the assay.
OUTPUT: true (1)

INPUT: Name the outcome recorded for [Se]c1ncnc2nc[nH]c12 in the assay.
OUTPUT: true (1)

INPUT: Name the outcome recorded for COc1cc[c]([Sb]([Br])([CH]=C(C)C)([CH]=C(C)C)[CH]=C(C)C)cc1 in the assay.
OUTPUT: true (1)

INPUT: Name the outcome recorded for CCN1CCC(O)(c2ccc(Cl)c(Cl)c2)C(C(=O)c2ccc(Cl)c(Cl)c2)C1 (centres undefined) in the assay.
OUTPUT: true (1)

INPUT: Name the outcome recorded for CC(C)=CC1CC(C)C2(CCC3(C)CC4C(C(=O)CC4(C)O)/C(C=O)=C\CC32)O1 (centres undefined) in the assay.
OUTPUT: true (1)

Others:
INPUT: Name the outcome recorded for CC1C2C=CC1C(c1c3ccc(=O)c(O)c-3oc3c(O)c(O)ccc13)C2C(=O)O (centres undefined) in the assay.
OUTPUT: false (0)

INPUT: Name the outcome recorded for C=CC[N+]12CN3CN(CN(C3)C1)C2 in the assay.
OUTPUT: false (0)

INPUT: Name the outcome recorded for COc1ccc2c3c(c4cc(OC)c(OC)cc4c2c1)C[C@H]1CCCCN1C3 in the assay.
OUTPUT: true (1)

INPUT: Name the outcome recorded for C[n+]1c(/C=C/c2ccc(O)c3ncccc23)[se]c2ccccc21 in the assay.
OUTPUT: true (1)
